Measured normalized RNA/DNA level without ligand (log10) of individual entries
B1: library; a variant is named by its letters at N, in order (parent)
chain: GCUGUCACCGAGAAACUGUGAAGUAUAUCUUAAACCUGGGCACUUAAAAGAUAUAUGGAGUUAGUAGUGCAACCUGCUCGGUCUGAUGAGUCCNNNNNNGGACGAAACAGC

Variants of: B1
Test: normalized RNA/DNA level without ligand (relative to sTRSVctl = 100) (log10 (% of sTRSVctl)); HEK293T; ligand: cyclic di-GMP (c-di-GMP-II aptamer); higher = less ribozyme self-cleavage, higher mRNA level
Settings: reporter: mCherry (pCS4076), ligand present: no
reported.metric: normalized RNA/DNA level without ligand (log10)

AACGGC 1.68
GUCCAG 1.76
AAGAUA 1.42
CUCCCG 1.79
GGGUCC 1.91
ACUCCU 1.72
UUGCGG 1.84
CAACAU 1.43
ACGAGU 1.43
AAAAAU 1.55
CACUGC 1.76
AUGGAG 1.55
GGCAUG 1.68
AGCUUC 1.77
AGAUGU 1.56
UACUCU 1.73
GCGCGA 1.51
UCUUCU 1.76
AUGGUC 1.67
GACGUU 1.62
UCAGAA 1.35
CUCCGC 1.78
AUCUUC 1.81
AGAGUG 1.72
CUGUAA 1.26
UACCAC 1.7
CGACCA 1.67
AUGGCG 1.69
CUUGCC 1.82
UCUAAA 1.5
CUGAUG 1.39
GCCAGG 1.75
UUGCAG 1.85
UGGGUU 1.72
UUAAAG 1.65
UUUUAG 1.74
UCGGGC 1.83
CCUGUG 1.54
ACUUAA 1.49
UAGGGA 1.53
UCCCCA 1.79
CCAAUC 1.55
UGUGCA 1.77
AAACCU 1.72
GUCCGG 1.84
